assay: Inhibition of human platelet (h-PRP) aggregation induced by 20 uM ADP with PPACK
Below: a set of entries, each annotated with reported IC50.
Give the value in nM but do not write nM after it.

CCOC(=O)COC1CCN(C(=O)[C@H](C)NC(=O)c2ccc(C(=N)NO)cc2)CC1 : 72
N=C(N)c1ccc(N2CCC3(CCN(C(=O)CCCC(=O)O)CC3)C2=O)cc1 : 168
CCOC(=O)CCNC(=O)N[C@H]1CCN(c2ccc(C(=N)N)cc2)C1=O [SC-57099B] : 137

The record that follows has no IC50 shown yet.
The compound listed as C[C@@H](CC(=O)O)CC(=O)N1CCC2(CC1)CCN(c1ccc(C(=N)N)cc1)C2=O has a reported IC50 of 112

* * *

Below: a set of entries, each annotated with reported IC50.
test: Inhibition of human platelet (h-PRP) aggregation induced by 5 uM TRAP6 with PPACK
Give the value in nM but do not write nM after it.

The examples below pair each entry with its known result.
N=C(N)c1ccc(N2CCC3(CCN(C(=O)NCCC(=O)O)CC3)C2=O)cc1 : 365
CCOC(=O)CCNC(=O)N[C@H]1CCN(c2ccc(C(=N)N)cc2)C1=O [SC-57099B] : 362
N=C(N)c1ccc(N2CCC3(CCN(C(=O)COCC(=O)O)CC3)C2=O)cc1 : 691
N=C(N)c1ccc(N2CCC3(CCN(C(=O)CCCC(=O)O)CC3)C2=O)cc1 : 368

The compound listed as CCOC(=O)COC1CCN(C(=O)[C@H](C)NC(=O)c2ccc(C(=N)NO)cc2)CC1 has a reported IC50 of 182

* * *

biological target: Integrin alpha-IIb/beta-3 (Homo sapiens, UniProt P08514+P05106); assay: Inhibition of platelet aggregation induced by 20 uM adenosine 5-diphosphate (ADP) in citreated human platelet rich plasma (h-PRP)
Sequence (P05106 27-788 limits assumed): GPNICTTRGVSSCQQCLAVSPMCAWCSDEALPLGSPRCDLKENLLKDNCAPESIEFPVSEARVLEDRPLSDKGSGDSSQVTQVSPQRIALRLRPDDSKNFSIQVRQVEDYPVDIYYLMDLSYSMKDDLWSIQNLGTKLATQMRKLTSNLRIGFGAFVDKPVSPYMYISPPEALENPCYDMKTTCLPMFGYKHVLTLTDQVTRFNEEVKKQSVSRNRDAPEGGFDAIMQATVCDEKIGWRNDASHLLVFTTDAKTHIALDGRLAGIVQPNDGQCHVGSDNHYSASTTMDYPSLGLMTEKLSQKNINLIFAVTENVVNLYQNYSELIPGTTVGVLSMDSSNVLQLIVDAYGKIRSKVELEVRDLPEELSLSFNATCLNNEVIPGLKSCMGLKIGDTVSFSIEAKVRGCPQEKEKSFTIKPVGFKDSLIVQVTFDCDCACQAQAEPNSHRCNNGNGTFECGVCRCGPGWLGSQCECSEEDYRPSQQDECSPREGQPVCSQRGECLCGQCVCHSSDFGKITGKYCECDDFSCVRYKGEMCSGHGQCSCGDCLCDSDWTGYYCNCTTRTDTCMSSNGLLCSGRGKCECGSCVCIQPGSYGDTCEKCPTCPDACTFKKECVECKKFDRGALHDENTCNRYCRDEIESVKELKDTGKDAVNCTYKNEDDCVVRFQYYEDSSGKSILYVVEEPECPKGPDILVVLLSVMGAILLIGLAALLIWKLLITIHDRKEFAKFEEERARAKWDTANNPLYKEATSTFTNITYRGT
Sequence (P08514 32-887 limits assumed): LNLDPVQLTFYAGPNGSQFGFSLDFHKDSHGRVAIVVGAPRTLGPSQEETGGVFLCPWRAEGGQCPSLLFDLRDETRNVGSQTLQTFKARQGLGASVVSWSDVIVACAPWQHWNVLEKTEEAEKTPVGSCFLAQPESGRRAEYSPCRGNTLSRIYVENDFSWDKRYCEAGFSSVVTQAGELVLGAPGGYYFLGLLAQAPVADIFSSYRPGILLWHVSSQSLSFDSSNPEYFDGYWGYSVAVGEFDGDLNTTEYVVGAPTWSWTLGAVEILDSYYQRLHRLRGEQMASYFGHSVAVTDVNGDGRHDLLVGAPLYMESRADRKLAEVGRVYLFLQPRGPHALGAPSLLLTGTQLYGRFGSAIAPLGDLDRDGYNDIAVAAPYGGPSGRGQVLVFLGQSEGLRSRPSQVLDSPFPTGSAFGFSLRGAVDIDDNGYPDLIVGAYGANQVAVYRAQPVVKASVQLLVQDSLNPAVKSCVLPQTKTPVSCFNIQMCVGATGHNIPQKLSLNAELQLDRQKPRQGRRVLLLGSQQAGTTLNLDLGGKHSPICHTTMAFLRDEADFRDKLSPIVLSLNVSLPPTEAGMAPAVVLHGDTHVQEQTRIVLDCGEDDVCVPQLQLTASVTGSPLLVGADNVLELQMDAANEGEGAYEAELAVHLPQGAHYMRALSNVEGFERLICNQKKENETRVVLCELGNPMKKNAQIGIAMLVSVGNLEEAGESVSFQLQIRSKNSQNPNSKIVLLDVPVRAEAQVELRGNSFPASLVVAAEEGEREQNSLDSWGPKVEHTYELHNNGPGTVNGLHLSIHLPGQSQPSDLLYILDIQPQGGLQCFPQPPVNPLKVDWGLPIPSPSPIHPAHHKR
Sequence (P08514 891-1039 limits assumed): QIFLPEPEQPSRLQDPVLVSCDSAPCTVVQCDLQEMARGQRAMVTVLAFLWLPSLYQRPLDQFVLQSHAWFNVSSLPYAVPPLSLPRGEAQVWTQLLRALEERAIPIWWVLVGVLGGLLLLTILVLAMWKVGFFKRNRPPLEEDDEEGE
Category | rule: reported IC50 within range, see lower (below 100 nM), middle (100 nM to below 700 nM), upper (700 nM or more)

N=C(N)c1ccc(N2CC3(CCN(C(=O)CC(=O)O)CC3)CC2=O)cc1 : upper

Query :: Assign a category based on measured IC50 for N=C(N)c1ccc(N2C(=O)CC3(CCN(C(=O)CCCC(=O)O)CC3)C2=O)cc1 and give only the class name.
Result :: upper

Query :: Assign a category based on measured IC50 for CC(C)(COC(=O)N1CCC2(CC1)CC(=O)N(c1ccc(C(=N)N)cc1)C2)C(=O)O and give only the class name.
Result :: upper

* * *

Below: a set of entries, each annotated with reported log10 of IC50.
molecular target: Integrin alpha-IIb/beta-3 (Homo sapiens, UniProt P08514+P05106); experiment: Inhibition of platelet aggregation induced by 20 uM adenosine 5-diphosphate (ADP) in citreated human platelet rich plasma (h-PRP)
Response schema: value (number) is log10 of IC50 in units of nM.

CN1C(=O)N(c2ccc(C(=N)N)cc2)C(=O)C12CCN(C(=O)NC(CC(=O)O)c1ccccc1)CC2 (stereo not drawn) : 2.01
Cc1ccc(S(=O)(=O)N[C@@H](CNC(=O)N2CCC3(CC2)CCN(c2ccc(C(=N)N)cc2)C3=O)C(=O)O)cc1 : 1.82
N=C(N)c1ccc(N2CCC3(CCN(CCCCC(=O)O)CC3)C2=O)cc1 : 3.71
N=C(N)c1ccc(N2CCC3(CCN(C(=O)CCCCC(=O)O)CC3)C2=O)cc1 : 3.53
N=C(N)c1ccc(N2CCC3(CCN(C(=O)CC(CC(=O)O)c4ccccc4)CC3)C2=O)cc1 (stereo not drawn) : 2.17
N=C(N)c1ccc(N2CC3(CCN(C(=O)NCCC(=O)O)CC3)CC2=O)cc1 : 2.23

The molecule listed as CN1C(=O)N(c2ccc(C(=N)N)cc2)CC12CCN(C(=O)CCCC(=O)O)CC2 has a reported log10 of IC50 of 2.83

The molecule listed as N=C(N)c1ccc(N2CC3(CCN(C(=O)NCCC(=O)O)CC3)NC2=O)cc1 has a reported log10 of IC50 of 3.58

The molecule listed as N=C(N)c1ccc(N2C(=O)CC3(CCN(C(=O)NCCC(=O)O)CC3)C2=O)cc1 has a reported log10 of IC50 of 2.81

The molecule listed as N=C(N)c1ccc(N2CC3(CCN(C(=O)CCC(=O)O)CC3)CC2=O)cc1 has a reported log10 of IC50 of 3.76

The molecule listed as N=C(N)c1ccc(N2CC3(CCN(C(=O)CC(CC(=O)O)c4ccccc4)CC3)CC2=O)cc1 (stereo not drawn) has a reported log10 of IC50 of 2.00

The molecule listed as N=C(N)c1ccc(N2CC3(CCN(C(=O)CCCCC(=O)O)CC3)CC2=O)cc1 has a reported log10 of IC50 of 3.61

The molecule listed as CCNC(=N)c1ccc(N2CCC3(CCN(C(=O)CCCC(=O)O)CC3)C2=O)cc1 has a reported log10 of IC50 of 3.88

The molecule listed as N=C(N)c1ccc(N2CCC3(CCN(C(=O)NCCC(=O)O)CC3)C2=O)cc1 has a reported log10 of IC50 of 1.72

The molecule listed as C[C@H](CC(=O)O)CC(=O)N1CCC2(CC1)CCN(c1ccc(C(=N)N)cc1)C2=O has a reported log10 of IC50 of 2.54

The molecule listed as CN1C(=O)N(c2ccc(C(=N)N)cc2)C(=O)C12CCN(C(=O)CC(CC(=O)O)c1ccccc1)CC2 (stereo not drawn) has a reported log10 of IC50 of 2.08

The molecule listed as N=C(N)c1ccc(N2CCC3(CCN(C(=O)COCC(=O)O)CC3)C2=O)cc1 has a reported log10 of IC50 of 2.03

The molecule listed as CCOC(=O)COC1CCN(C(=O)[C@H](C)NC(=O)c2ccc(C(=N)NO)cc2)CC1 has a reported log10 of IC50 of 1.71
